# Target under test: full-length beta-Catenin (Uniprot ID P35222) (Homo sapiens (Human)) (UniProt P35222)
# Sequence (P35222 2-781 limits assumed): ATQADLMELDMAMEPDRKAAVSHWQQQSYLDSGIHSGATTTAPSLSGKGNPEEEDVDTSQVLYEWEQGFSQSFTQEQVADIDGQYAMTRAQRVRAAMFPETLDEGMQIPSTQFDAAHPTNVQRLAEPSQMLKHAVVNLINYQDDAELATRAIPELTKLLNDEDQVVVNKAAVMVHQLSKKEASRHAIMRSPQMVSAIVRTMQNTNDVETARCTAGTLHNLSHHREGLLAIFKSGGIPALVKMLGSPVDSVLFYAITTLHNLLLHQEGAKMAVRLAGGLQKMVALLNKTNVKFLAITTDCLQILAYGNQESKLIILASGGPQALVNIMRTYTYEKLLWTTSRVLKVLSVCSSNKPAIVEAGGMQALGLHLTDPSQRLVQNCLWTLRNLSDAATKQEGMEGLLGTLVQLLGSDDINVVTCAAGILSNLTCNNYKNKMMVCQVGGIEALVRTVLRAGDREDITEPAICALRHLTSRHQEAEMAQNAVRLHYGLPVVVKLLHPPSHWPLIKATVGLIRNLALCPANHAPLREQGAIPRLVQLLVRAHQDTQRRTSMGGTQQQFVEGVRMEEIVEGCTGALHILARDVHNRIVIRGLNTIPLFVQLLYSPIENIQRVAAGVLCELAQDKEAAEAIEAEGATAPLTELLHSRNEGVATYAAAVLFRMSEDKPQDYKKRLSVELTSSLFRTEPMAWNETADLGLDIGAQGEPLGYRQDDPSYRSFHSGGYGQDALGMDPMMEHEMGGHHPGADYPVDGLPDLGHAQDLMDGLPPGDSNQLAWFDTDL
# Method: fluorescence polarization competition; 10 nM full-length beta-catenin with 10 nM 5FAM-TCF4(10-53) probe as competitor
pIC50: −log10 of the molar value. Starred links: 1 amine or outer side, 2 acyl side, 3 side chain; linkers in the order of their positions; H or OH if unused. Positions of bridges follow the written chain, without caps; N, C: chain ends. Non-standard residues stand in square brackets, D forms with d. Primed or numbered codes have the meaning given here. PyrS2″ = (S)-3-amino-1-((pent-4-en-1-yloxy)carbonyl)pyrrolidine-3-carboxylic acid (stapling residue), C=CCCCOC(=O)N1CC[C@@](N[*:1])(C(=O)[*:2])C1; B5(16) = 2-amino-2-(pent-4-en-1-yl)hept-6-enoic acid = 2,2-bis(4-pentenyl)glycine (stitching residue), C=CCCCC(CCCC=C)(N[*:1])C(=O)[*:2]; PyrS2 = (S)-3-amino-1-((pent-4-en-1-yloxy)carbonyl)pyrrolidine-3-carboxylic acid, C=CCCCOC(=O)N1CC[C@@](N[*:1])(C(=O)[*:2])C1; B5(3) = 2,2-bis(4-pentenyl)glycine (stitching residue), C=CCCCC(CCCC=C)(N[*:1])C(=O)[*:2]; B5 = 2-amino-2-(pent-4-en-1-yl)hept-6-enoic acid, C=CCCCC(CCCC=C)(N[*:1])C(=O)[*:2]; Trp(6-Cl) = N[C@@H](Cc1c[nH]c2cc(Cl)ccc12)C(=O)O; Trp(5-F) = N[C@@H](Cc1c[nH]c2ccc(F)cc12)C(=O)O; Trp(1-Me) = Cn1cc(C[C@H](N)C(=O)O)c2ccccc21; Ala(4-thiazolyl) = N[C@@H](Cc1cscn1)C(=O)O; Phe(2-Cl) = N[C@@H](Cc1ccccc1Cl)C(=O)O; 1Nal = N[C@@H](Cc1cccc2ccccc12)C(=O)O; 2Nal = N[C@@H](Cc1ccc2ccccc2c1)C(=O)O; Bta = N[C@@H](Cc1csc2ccccc12)C(=O)O; αAllylPro = C=CC[C@@]1(C(=O)O)CCCN1; tBuAla = CC(C)(C)C[C@H](N)C(=O)O; 3Thi = N[C@@H](Cc1ccsc1)C(=O)O; Cit = NC(=O)NCCC[C@H](N)C(=O)O; hSer = N[C@@H](CCO)C(=O)O
Here, each record is paired with measured pIC50 data.
Value kind: pIC50

- Ac-[αAllylPro]D[tBuAla][B5(3)]DDAAFF[PyrS2″][3Thi][Bta]Q-NH2 (staple 1-4, 4-11) [I-807]: 8.30
- Ac-[αAllylPro]D[tBuAla][B5]DDAAFN[PyrS2][2Nal][Bta]H-NH2 (staple 1-4, 4-11) [I-795]: 6.75
- Ac-[αAllylPro]D[tBuAla][B5(16)]DDAAFS[PyrS2″][Phe(2-Cl)][Bta]S-NH2 (staple 1-4, 4-11; not fully specified; printed as Ac-PL3-Asp-Npg-B5-Asp-Asp-Ala-Ala-Phe-Ser-PyrS2-2C1F-BztA-Ser-NH2) [I-1019: Ac-PL3-Asp-Npg-B5-Asp-Asp-Ala-Ala-Phe-Ser-PyrS2-2C1F-BztA-Ser-NH2]: 8.30
- Ac-[αAllylPro]D[tBuAla][B5(3)]DDAAFT[PyrS2″][3Thi][Bta]H-NH2 (staple 1-4, 4-11) [I-810]: 8.22
- Ac-[αAllylPro]D[tBuAla][B5]DDAAFN[PyrS2″][3Thi][Bta]N-NH2 (staple 1-4, 4-11) [I-816]: 8.30
- Ac-[αAllylPro]D[tBuAla][B5]DDAAFL[PyrS2][3Thi][Bta]H-NH2 (staple 1-4, 4-11) [I-802]: 8.22
- Ac-[αAllylPro]D[tBuAla][B5]DDAAFN[PyrS2″][3Thi][Bta]T-NH2 (staple 1-4, 4-11) [I-814]: 8.15
- Ac-[αAllylPro]D[tBuAla][B5(3)]DDAAF[hSer][PyrS2″][3Thi][Bta]H-NH2 (staple 1-4, 4-11) [I-804]: 8.30
- Ac-[αAllylPro]D[tBuAla][B5]DDAAFN[PyrS2″][3Thi][Bta]S-NH2 (staple 1-4, 4-11) [I-815]: 8.30
- Ac-[αAllylPro]D[tBuAla][B5]DDAAFN[PyrS2][3Thi][Trp(5-F)]H-NH2 (staple 1-4, 4-11) [I-800]: 7.10
- Ac-[αAllylPro]D[tBuAla][B5(3)]DDAAF[Cit][PyrS2″][3Thi][Bta]Q-NH2 (staple 1-4, 4-11) [I-805]: 8.30
- Ac-[αAllylPro]D[tBuAla][B5]DDAAFN[PyrS2″][3Thi][Bta][dH]-NH2 (staple 1-4, 4-11) [I-813]: 8.15
- Ac-[αAllylPro]D[tBuAla][B5(3)]DDAAFF[PyrS2″][3Thi][Bta]H-NH2 (staple 1-4, 4-11) [I-808]: 8.30
- Ac-[αAllylPro]D[tBuAla][B5]DDAAFN[PyrS2][3Thi][Trp(1-Me)]H-NH2 (staple 1-4, 4-11) [I-799]: 7.04
- Ac-[αAllylPro]D[tBuAla][B5(3)]DDAAF[Cit][PyrS2″][3Thi][Bta]H-NH2 (staple 1-4, 4-11) [I-806]: 8.30
- Ac-[αAllylPro]D[tBuAla][B5]DDAAFN[PyrS2][1Nal][Bta]H-NH2 (staple 1-4, 4-11) [I-794]: 7.72
- Ac-[αAllylPro]D[tBuAla][B5]DDAAFN[PyrS2][3Thi][Trp(6-Cl)]H-NH2 (staple 1-4, 4-11) [I-798]: 6.97
- Ac-[αAllylPro]D[tBuAla][B5(3)]DDAA[Ala(4-thiazolyl)]N[PyrS2″][3Thi][Bta]Q-NH2 (staple 1-4, 4-11) [I-812]: 7.48
- Ac-[αAllylPro]D[tBuAla][B5(3)]DDAAFT[PyrS2″][3Thi][Bta]Q-NH2 (staple 1-4, 4-11) [I-809]: 8.30
